- testTarget: KLF16 (Homo sapiens, UniProt Q9BXK1)
- Sequence (Q9BXK1 whole entry): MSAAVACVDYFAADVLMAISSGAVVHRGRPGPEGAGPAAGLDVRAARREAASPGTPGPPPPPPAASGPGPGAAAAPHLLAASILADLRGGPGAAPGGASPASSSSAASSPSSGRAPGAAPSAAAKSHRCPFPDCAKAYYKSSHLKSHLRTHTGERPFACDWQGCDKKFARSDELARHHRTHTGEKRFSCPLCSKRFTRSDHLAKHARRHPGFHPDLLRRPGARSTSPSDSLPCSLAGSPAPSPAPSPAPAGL
- test: competition; 150 mM NaCl, 50 mM Tris pH 8, 0.25% NP-40, 1 mM TCEP; 4 C, 2 h; 100 ug HeLa nuclear lysate; free competitor against 200 nM immobilised SP/KLF wild-type
- conditionLabel: protein: extract
experimentalReadout: pIC50
Answers are plain numbers, as −log10 of the molar value.

Exam item: Item under review: SP/KLF wild-type (dsDNA) DNA 1: GAGAGCCCCGCCCCCTGGCT DNA 2: AGCCAGGGGGCGGGGCTCTC . Reported pIC50?
Marked response: 6.75
